Tested on: DU-145 prostate
assay_notes: NCI tumour cell line growth inhibition, 48 h; in the data active = GI50 below about 0.43 µM; inactive = the rest
Outcomes: 1 (active), -1 (inactive)

compound	label
CC(C)C[C@H](NC(=O)Cn1ccc(NCc2ccccc2)cc1=O)B(O)O	-1
CC(=O)N1C/C(=C/c2ccc(Cl)cc2)C(=O)/C(=C/c2ccc(Cl)cc2)C1	-1
C[C@]12CC[C@H](OC3OC(CO)C(O)C(O)C3O)C[C@H]1CC[C@@H]1[C@@H]2CC[C@]2(C)[C@@H](C3=CCOC3=O)CC[C@]12O (stereo partly specified)	-1
Cc1cc(-c2nc3sccn3c2/C=N/N=C(N)N)c(C)s1	-1
COc1ccc(/C(COc2ccc3c(=O)c(-c4ccccc4)coc3c2)=N\O)cc1	-1
COc1cc2c(cc1OC)-c1ccc3cc4c(cc3c1N(CCCn1ccnc1)C2)OCO4	-1
O=C1CC(=O)N(C(=O)c2nn(-c3ccc(Cl)cc3)cc2O)N1	-1
COc1cc2ncn(-c3cc(O[C@@H](C)c4ccccc4Cl)c(C(N)=O)s3)c2cc1OC	-1
COc1ccc(-c2oc(=O)ccc2-c2cc(OC)c(OC)c(OC)c2)cc1O	-1
Nc1c2c(c(O)c3c1=C(CO)C=N3)=NCCS2	1
COc1ccc(-c2cc(-c3ccc(Cl)cc3)nc(SCCCC(=O)NO)n2)cc1	-1
